Hello, the source for this data is PubChem BioAssay (NCI), in case you need it.

# Test system: OVCAR-8 ovarian
# protocolText: NCI tumour cell line growth inhibition, 48 h
Given measured TGI, output yes (1) if it is greater than or equal to 6 µM and no (0) if not.

compound	measuredOn	labelClass
O=C(O)c1cn(C2CC2)c2cc(N3CCN(C(=O)Nc4nc(-c5ccccc5)cs4)CC3)c(F)cc2c1=O	OVCAR-8 ovarian	yes (1)

Prompt: Determine whether this compound has TGI no lower than 6 µM: `COc1cccc2c1-c1c(c3ccc([N+](=O)[O-])cc3c(=O)n1CCCN)C2=O`
Completion: no (0)

Prompt: Could you please find out whether `O=C1C=CC(=C(c2ccc(O)cc2)c2ccc(O)cc2)C=C1` has TGI that meets 6 µM or exceeds it?
Completion: yes (1)

Prompt: Check the entry `COc1ccc(NC(=O)CC(=O)n2nc(C)c(N=Nc3cccc(C)c3)c2C)cc1` : does TGI equal or exceed 6 µM?
Completion: yes (1)

Prompt: Hi team, for `COc1ccc2c(c1)CC[C@@H]1[C@@H]2CC[C@]2(C)[C@@H](NC(=O)/C=C/c3ccc(O)c(O)c3)CC[C@@H]12` , is the recorded TGI at or above 6 µM?
Completion: yes (1)

Prompt: Identify whether the reported TGI of the following compound is 6 µM or greater: `Oc1ccc(Cl)cc1-c1cc(-c2ccccc2)nc(NCN2CCCCC2)n1`
Completion: yes (1)

Prompt: Record `C=C1C(=O)O[C@H]2[C@H]3O[C@@H](C[C@@H]12)[C@@]1(C)CC[C@H](O1)[C@H](C)CCC[C@H]3C` ; criterion: TGI no lower than 6 µM. Met?
Completion: no (0)

Prompt: Quick check, TGI >= 6 µM? `Cc1c(CCO)c(=O)n2c([nH]c3ccccc32)c1C#N`
Completion: yes (1)

Prompt: Hi, just wondering whether Cc1cn(C2C=CC(CO)O2)c(=O)[nH]c1=O (centres undefined) shows TGI of 6 µM or higher.
Completion: yes (1)
